From: paper PMC8253220

# Target desc: HDAC6 (Homo sapiens)
# Construct: purchased BPS Bioscience 50006
# Sequence (Q9UBN7 whole entry): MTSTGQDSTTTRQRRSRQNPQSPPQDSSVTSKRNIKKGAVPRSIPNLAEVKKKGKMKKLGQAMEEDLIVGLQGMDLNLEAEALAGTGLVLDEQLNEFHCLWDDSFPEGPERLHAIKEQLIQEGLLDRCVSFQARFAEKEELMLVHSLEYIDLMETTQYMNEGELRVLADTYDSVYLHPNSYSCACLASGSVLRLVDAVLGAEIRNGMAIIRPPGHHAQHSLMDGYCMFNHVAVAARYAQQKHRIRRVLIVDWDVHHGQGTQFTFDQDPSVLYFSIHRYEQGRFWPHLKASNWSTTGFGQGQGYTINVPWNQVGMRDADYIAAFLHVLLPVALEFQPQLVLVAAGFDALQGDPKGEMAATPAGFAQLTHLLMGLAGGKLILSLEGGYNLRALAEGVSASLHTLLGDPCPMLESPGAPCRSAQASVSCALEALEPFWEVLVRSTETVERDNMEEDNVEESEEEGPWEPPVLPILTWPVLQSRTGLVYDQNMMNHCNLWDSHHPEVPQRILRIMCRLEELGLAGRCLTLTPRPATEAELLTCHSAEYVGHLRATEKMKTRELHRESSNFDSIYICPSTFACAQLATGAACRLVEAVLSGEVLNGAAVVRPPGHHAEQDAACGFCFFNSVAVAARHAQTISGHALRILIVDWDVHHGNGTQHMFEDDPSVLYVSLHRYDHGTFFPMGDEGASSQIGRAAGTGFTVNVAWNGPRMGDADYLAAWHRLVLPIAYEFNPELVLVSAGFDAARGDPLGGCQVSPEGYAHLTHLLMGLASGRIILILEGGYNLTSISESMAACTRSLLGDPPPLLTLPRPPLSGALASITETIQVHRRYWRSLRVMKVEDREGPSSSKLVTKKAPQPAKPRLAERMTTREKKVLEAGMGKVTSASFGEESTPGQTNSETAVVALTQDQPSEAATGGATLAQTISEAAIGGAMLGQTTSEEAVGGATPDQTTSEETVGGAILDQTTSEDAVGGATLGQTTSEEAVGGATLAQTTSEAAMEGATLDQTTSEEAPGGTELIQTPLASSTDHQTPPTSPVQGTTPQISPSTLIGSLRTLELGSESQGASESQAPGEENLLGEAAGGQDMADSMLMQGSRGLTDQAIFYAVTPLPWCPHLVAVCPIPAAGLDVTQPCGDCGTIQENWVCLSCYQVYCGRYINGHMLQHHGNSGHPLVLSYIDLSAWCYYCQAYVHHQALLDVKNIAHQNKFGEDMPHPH
# Assay comment: In vitro HDAC6 inhibitory assay (BPS Bioscience, fluorogenic)
# Type: biochemical
# Condition context: 10 µM
Property name: inhibition at 10 µM

Query string: Which inhibition at 10 µM value is on record for Cc1c(C(=O)NCCC(=O)NO)sc2ncnc(Nc3ccc(NC(=O)Nc4ccccc4)cc3)c12 [Compound 11a] ?
Result string: 5%

Query string: What would you report for Cc1c(C(=O)NCCCC(=O)NO)sc2ncnc(Nc3ccccc3)c12 [Compound 20b] ?
Result string: 56%

Query string: Now give it for COc1cccc(NC(=O)Nc2ccc(Nc3ncnc4sc(C(=O)NO)c(C)c34)cc2)c1 too.
Result string: 8%

Query string: Let us now turn to Cc1c(C(=O)NCCCC(=O)NO)sc2ncnc(Nc3ccc(NC(=O)Nc4ccccc4)cc3)c12 [Compound 12a]
Result string: 7%

###

# Tested on: full NCI 60 cell panel
# Assay comment: NCI one-dose screen, whole panel statistics
# Type: cell-based, human
# Condition context: mean over panel, 1.00E-5 Molar
Record form. Attribute: Mean Growth Percent. Fill in for each entry.
Quick reminder: number only, in %, skip the unit.

Query string: For the molecule Cc1c(C(=O)NO)sc2ncnc(Nc3ccc(NC(=O)Nc4cccc(C(F)(F)F)c4)cc3)c12 [Compound 7c] , what Mean Growth Percent is on record?
Result string: 97.22

Query string: Next record, please: Cc1c(C(=O)NCCCC(=O)NO)sc2ncnc(Nc3ccc(NC(=O)Nc4cccc(C(F)(F)F)c4)cc3)c12 [Compound 12c]
Result string: 104.16

Query string: COc1cccc(NC(=O)Nc2ccc(Nc3ncnc4sc(C(=O)NO)c(C)c34)cc2)c1 [Compound 7b] ?
Result string: 101.61

Query string: And for Cc1c(C(=O)NCCCC(=O)NO)sc2ncnc(Nc3ccc(Cl)cc3)c12 [Compound 20c] ?
Result string: 103.09

Query string: Entry COc1cccc(NC(=O)Nc2ccc(Nc3ncnc4sc(C(=O)NCCC(=O)NO)c(C)c34)cc2)c1 [Compound 11b] please
Result string: 100.99

Query string: Same question for Cc1c(C(=O)NO)sc2ncnc(Nc3ccc(F)c(Cl)c3)c12 [Compound 15d] please.
Result string: 101.50

Query string: Thanks! And Cc1c(C(=O)NO)sc2ncnc(Nc3ccccc3)c12 [Compound 15b] ?
Result string: 97.09

Query string: Also Cc1c(C(=O)NCCC(=O)NO)sc2ncnc(Nc3ccc(Cl)cc3)c12 [Compound 19c] , if possible.
Result string: 104.82

###

Exercise: state measured Growth Percent for each of the compounds provided.
# Test system: SF-268
# Assay comment: NCI one-dose screen
# Assay type: cell-based, human
# Condition context: CNS SF-268, 10 µM single dose
Answer in %, number only, no unit symbol.

Query string: Item Cc1c(C(=O)NCCC(=O)NO)sc2ncnc(Nc3ccccc3)c12 [Compound 19b] has what recorded Growth Percent?
Result string: 97.0

Query string: Please give the result for Cc1c(C(=O)NCCCC(=O)NO)sc2ncnc(Nc3ccc(F)c(Cl)c3)c12 [Compound 20d] too.
Result string: 95.2

Query string: # iterate: Cc1c(C(=O)NO)sc2ncnc(Nc3ccc(NC(=O)Nc4ccccc4)cc3)c12
Result string: 91.7

Query string: Now give it for COc1cccc(NC(=O)Nc2ccc(Nc3ncnc4sc(C(=O)NCCCC(=O)NO)c(C)c34)cc2)c1 [Compound 12b] too.
Result string: 95.1

Query string: // query: Cc1c(C(=O)NO)sc2ncnc(Nc3cccc4[nH]cnc34)c12 [Compound 15a]
Result string: 93.9

Query string: Repeat with Cc1c(C(=O)NO)sc2ncnc(Nc3ccc(F)c(Cl)c3)c12 [Compound 15d]
Result string: 96.5

Query string: Same read-out for Cc1c(C(=O)NO)sc2ncnc(Nc3ccc(NC(=O)Nc4cccc(C(F)(F)F)c4)cc3)c12 ?
Result string: 89.2

###

# System: full NCI 60 cell panel
# Assay comment: NCI one-dose screen, whole panel statistics
# Type: cell-based, human
# Condition context: mean over panel, 1.00E-5 Molar
Property name: Mean Growth Percent (%)
Give just the numeric value; % need not be written.

Query string: Consider the compound Cc1c(C(=O)NCCCC(=O)NO)sc2ncnc(Nc3ccccc3)c12 [Compound 20b] and give its measured Mean Growth Percent.
Result string: 102.91

Query string: And then Cc1c(C(=O)NCCC(=O)NO)sc2ncnc(Nc3ccc(NC(=O)Nc4cccc(C(F)(F)F)c4)cc3)c12 [Compound 11c] , what is it?
Result string: 102.55

Query string: // query: COc1cccc(NC(=O)Nc2ccc(Nc3ncnc4sc(C(=O)NCCCC(=O)NO)c(C)c34)cc2)c1 [Compound 12b]
Result string: 100.10

Query string: Field entry: Cc1c(C(=O)NO)sc2ncnc(Nc3ccc(Cl)cc3)c12 [Compound 15c]
Result string: 99.73

###

Property name: melting point

Query string: Can you share its melting point? I mean this molecule: CCOC(=O)CCCNC(=O)c1sc2ncnc(Nc3ccc(NC(=O)Nc4ccccc4)cc3)c2c1C [Compound 10a]
Result string: 219 to 221 °C

Query string: Same thing, different molecule: CCOC(=O)c1sc2ncnc(Nc3ccc(NC(=O)Nc4cccc(OC)c4)cc3)c2c1C
Result string: 220 to 222 °C

Query string: Try this molecule too: CCOC(=O)c1sc2ncnc(Nc3ccc(NC(=O)Nc4cccc(C(F)(F)F)c4)cc3)c2c1C
Result string: 305 to 307 °C

Query string: Cool, now CCOC(=O)CCCNC(=O)c1sc2ncnc(Nc3ccc(F)c(Cl)c3)c2c1C [Compound 18d]
Result string: 131 to 133 °C

Query string: Again, but for CCOC(=O)c1sc2ncnc(Nc3ccc(NC(=S)Nc4ccccc4)cc3)c2c1C
Result string: 173 to 175 °C

###

Kindly state inhibition at 10 µM for each of the entries shown.
# Target desc: VEGFR-2 (Homo sapiens, UniProt P35968)
# Sequence (P35968 20-1356): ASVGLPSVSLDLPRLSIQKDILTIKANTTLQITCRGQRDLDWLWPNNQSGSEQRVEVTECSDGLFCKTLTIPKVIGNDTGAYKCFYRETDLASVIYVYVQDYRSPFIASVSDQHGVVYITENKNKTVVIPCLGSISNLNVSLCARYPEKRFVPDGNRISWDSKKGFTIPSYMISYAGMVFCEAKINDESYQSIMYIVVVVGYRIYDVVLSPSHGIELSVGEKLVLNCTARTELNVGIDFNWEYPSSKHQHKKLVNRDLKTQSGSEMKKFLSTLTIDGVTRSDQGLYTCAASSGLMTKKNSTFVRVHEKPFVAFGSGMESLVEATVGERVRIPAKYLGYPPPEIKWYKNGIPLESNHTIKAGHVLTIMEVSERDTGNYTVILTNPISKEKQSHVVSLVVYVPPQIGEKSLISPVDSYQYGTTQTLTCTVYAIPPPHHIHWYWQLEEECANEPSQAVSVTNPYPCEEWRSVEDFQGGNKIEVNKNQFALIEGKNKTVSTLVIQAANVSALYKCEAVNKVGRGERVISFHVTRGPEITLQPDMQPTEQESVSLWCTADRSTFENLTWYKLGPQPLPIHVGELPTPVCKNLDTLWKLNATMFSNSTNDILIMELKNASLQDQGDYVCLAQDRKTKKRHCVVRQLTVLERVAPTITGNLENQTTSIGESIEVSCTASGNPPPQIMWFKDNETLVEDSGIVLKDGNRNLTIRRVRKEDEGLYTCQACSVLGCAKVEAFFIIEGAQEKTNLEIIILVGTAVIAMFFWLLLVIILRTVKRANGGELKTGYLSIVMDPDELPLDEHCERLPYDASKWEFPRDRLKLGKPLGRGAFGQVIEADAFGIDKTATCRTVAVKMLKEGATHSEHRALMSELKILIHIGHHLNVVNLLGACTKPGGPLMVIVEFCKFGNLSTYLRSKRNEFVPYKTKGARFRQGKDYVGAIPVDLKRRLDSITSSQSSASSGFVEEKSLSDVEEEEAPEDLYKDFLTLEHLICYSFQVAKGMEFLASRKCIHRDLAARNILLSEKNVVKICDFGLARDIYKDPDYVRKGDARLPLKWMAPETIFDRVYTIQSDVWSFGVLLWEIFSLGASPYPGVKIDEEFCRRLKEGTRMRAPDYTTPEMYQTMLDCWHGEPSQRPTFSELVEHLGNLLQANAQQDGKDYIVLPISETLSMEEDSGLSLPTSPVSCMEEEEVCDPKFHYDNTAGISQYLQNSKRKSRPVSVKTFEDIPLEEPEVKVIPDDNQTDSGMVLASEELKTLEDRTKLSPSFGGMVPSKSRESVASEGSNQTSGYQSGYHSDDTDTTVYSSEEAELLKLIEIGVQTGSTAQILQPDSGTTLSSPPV
# Assay comment: In vitro VEGFR-2 tyrosine kinase inhibitory assay (Z'-LYTE, SelectScreen)
# Format: biochemical
# Condition context: 10 µM single dose
Give a bare numeral; the unit % is implied.

Query string: So what does the record say about inhibition at 10 µM for Cc1c(C(=O)NCCCC(=O)NO)sc2ncnc(Nc3ccc(NC(=O)Nc4cccc(C(F)(F)F)c4)cc3)c12 [Compound 12c] ?
Result string: 103

Query string: Then what about the compound Cc1c(C(=O)NO)sc2ncnc(Nc3ccc(Cl)cc3)c12 [Compound 15c] ?
Result string: 87

Query string: Okay, and Cc1c(C(=O)NO)sc2ncnc(Nc3ccc(NC(=O)Nc4ccccc4)cc3)c12 ?
Result string: 89

###

Define the label as 1 (yes) when melting point is strictly less than 200 °C and as 0 (no) in all remaining cases.

Query string: I'd appreciate it if you could check whether Cc1c(C(=O)NO)sc2ncnc(Nc3ccc(NC(=O)Nc4ccccc4)cc3)c12 has melting point smaller than 200 °C.
Result string: 0 (no)

Query string: Likewise for Cc1c(C(=O)NCCC(=O)NO)sc2ncnc(Nc3ccc(F)c(Cl)c3)c12 [Compound 19d] ?
Result string: 0 (no)

Query string: Would you mind doing Cc1c(C(=O)NCCC(=O)NO)sc2ncnc(Nc3ccc(Cl)cc3)c12 [Compound 19c] as well?
Result string: 0 (no)

Query string: Follow-up item: CCOC(=O)CCCNC(=O)c1sc2ncnc(Nc3ccc(Cl)cc3)c2c1C [Compound 18c]
Result string: 1 (yes)

Query string: Now give it for Cc1c(C(=O)NCCC(=O)NO)sc2ncnc(Nc3ccc(NC(=O)Nc4ccccc4)cc3)c12 [Compound 11a] too.
Result string: 0 (no)

Query string: Field entry: Cc1c(C(=O)NO)sc2ncnc(Nc3ccc(NC(=S)Nc4ccccc4)cc3)c12
Result string: 0 (no)

###

Property name: melting point

Query string: Fill blank: measured melting point of the molecule Cc1c(C(=O)NCCCC(=O)NO)sc2ncnc(Nc3ccc(NC(=O)Nc4cccc(C(F)(F)F)c4)cc3)c12 [Compound 12c] is ____.
Result string: 215 to 217 °C

Query string: What do you have for CCOC(=O)CCCNC(=O)c1sc2ncnc(Nc3ccc(NC(=O)Nc4cccc(C(F)(F)F)c4)cc3)c2c1C [Compound 10c] ?
Result string: 197 to 199 °C

Query string: How about this molecule: CCOC(=O)c1sc2ncnc(Nc3ccc(Cl)cc3)c2c1C [Compound 14c]
Result string: 174 to 176 °C

###

# Tested on: full NCI 60 cell panel
# Assay comment: NCI one-dose screen, whole panel statistics
# Format: cell-based, human
# Condition context: 1.00E-5 Molar
Property name: Delta (one dose mean graph)
Reply with the number, then its unit.

Query string: Could you tell me which Delta (one dose mean graph) is on file for Cc1c(C(=O)NCCCC(=O)NO)sc2ncnc(Nc3ccc(NC(=O)Nc4ccccc4)cc3)c12 [Compound 12a] ?
Result string: 25.38%

Query string: Same question for Cc1c(C(=O)NCCC(=O)NO)sc2ncnc(Nc3ccc(NC(=O)Nc4ccccc4)cc3)c12 [Compound 11a] please.
Result string: 21.26%

Query string: Request: Cc1c(C(=O)NO)sc2ncnc(Nc3ccc(NC(=O)Nc4cccc(C(F)(F)F)c4)cc3)c12 [Compound 7c]
Result string: 43.18%

Query string: Would you mind doing Cc1c(C(=O)NO)sc2ncnc(Nc3ccc(Cl)cc3)c12 [Compound 15c] as well?
Result string: 28.53%

Query string: Let us now turn to COc1cccc(NC(=O)Nc2ccc(Nc3ncnc4sc(C(=O)NCCC(=O)NO)c(C)c34)cc2)c1 [Compound 11b]
Result string: 17.95%

Query string: Likewise for Cc1c(C(=O)NCCCC(=O)NO)sc2ncnc(Nc3ccc(F)c(Cl)c3)c12 [Compound 20d] ?
Result string: 26.89%

Query string: Entry Cc1c(C(=O)NO)sc2ncnc(Nc3ccc(NC(=S)Nc4ccccc4)cc3)c12 [Compound 7d] please
Result string: 17.28%

Query string: Now consider Cc1c(C(=O)NCCCC(=O)NO)sc2ncnc(Nc3ccccc3)c12 [Compound 20b] and answer again.
Result string: 14.62%

Query string: Next: Cc1c(C(=O)NCCC(=O)NO)sc2ncnc(Nc3ccccc3)c12 [Compound 19b]
Result string: 19.11%

Query string: Param item: Cc1c(C(=O)NCCCC(=O)NO)sc2ncnc(Nc3ccc(Cl)cc3)c12 [Compound 20c]
Result string: 23.92%

Query string: Could you do the same for Cc1c(C(=O)NO)sc2ncnc(Nc3ccccc3)c12 [Compound 15b] , please?
Result string: 24.31%

Query string: Try the compound Cc1c(C(=O)NO)sc2ncnc(Nc3ccc(F)c(Cl)c3)c12 [Compound 15d]
Result string: 24.43%

Query string: Another compound to check: Cc1c(C(=O)NO)sc2ncnc(Nc3ccc(NC(=O)Nc4ccccc4)cc3)c12 [Compound 7a]
Result string: 24.69%
